System: 697B cells, BCR-induced NF-kB luciferase reporter luminescence
Assay: inhibitors of BCR-induced NF-kB activation, dose response, 697B cells, luciferase luminescence (AID 489023)
Activity calls are given as the source filed them. The rule behind the calls is not given here.
readout: IC50

Below, each entry is followed by its recorded IC50 result.
CC1CCC/C=C/C2CC(O)CC2C(O)/C=C/C(=O)O1 (stereo not given) : > 80 µM (inactive)
Cc1cnc(NC(=O)Nc2ccc(Cl)cc2)s1 : > 80 µM (inactive)

Task: Find the recorded IC50 belonging to C(=N\Nc1nc(Nc2ccccc2)nc(N2CCOCC2)n1)/c1c[nH]c2ccccc12 and report it.
Result: < 0.16 µM

Task: Find the recorded IC50 belonging to CCOc1ccc(-c2cc(CCCC(=O)NCc3ccco3)no2)cc1 and report it.
Result: 6.57 µM

Task: Find the recorded IC50 belonging to Cc1ccc(-c2nn3c(C)nnc3c3ccccc23)cc1S(=O)(=O)NCc1ccco1 and report it.
Result: 29.3 µM (inactive)

All figures here come from PubChem BioAssay AID489023.
